target system: human CB1 receptor (Homo sapiens, UniProt P21554)
Construct: expressed in transfected cells; host or cells: HEK293
Sequence (P21554 whole entry): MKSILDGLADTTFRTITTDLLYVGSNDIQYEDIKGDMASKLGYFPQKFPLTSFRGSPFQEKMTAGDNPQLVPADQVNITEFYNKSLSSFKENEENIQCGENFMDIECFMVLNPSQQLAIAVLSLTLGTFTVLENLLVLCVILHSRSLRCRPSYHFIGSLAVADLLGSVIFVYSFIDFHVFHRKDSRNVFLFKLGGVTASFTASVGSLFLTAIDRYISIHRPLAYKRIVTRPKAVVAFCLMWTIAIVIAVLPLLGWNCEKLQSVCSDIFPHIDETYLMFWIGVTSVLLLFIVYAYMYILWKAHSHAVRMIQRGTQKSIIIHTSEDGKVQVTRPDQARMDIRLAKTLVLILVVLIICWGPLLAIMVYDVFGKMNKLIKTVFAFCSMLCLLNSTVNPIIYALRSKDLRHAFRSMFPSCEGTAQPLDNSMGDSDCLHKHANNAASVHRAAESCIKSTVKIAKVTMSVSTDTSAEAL
method description: bioSensAll GAPL-Gi2 BRET biosensor assay in HEK293 cells transfected with hCB1; test compound added before EC75-80 of agonist CP55,940 (0.1 nM)
Type: cell-based
assay setup: vs CP55,940 0.1 nM (EC75-80), read-out: CB1 wt Gi2 IC50
Description: Using polyethylenimine (PEI) transfection agent, HEK293 cells were transfected in suspension with the human CB1 receptor and one of the following bioSensAll® assays: GAPL-Gi2, or β-arrestin plasma membrane (PM) translocation biosensor (+GRK2). Cells were directly seeded in 96-well plates immediately following transfection. Cells were incubated with coelenterazine (luciferase substrate) and different test compounds prior to the measurement of BRET signals. […]
readout label: log10 IC50 (log10 of the value in nM)

> print(dat)
                                    compound                             target.system  meas.value
 1  CN(CC(C)(C)O)c1nc(N2CCC(C)(C(N)=O)CC2)c2nc(-c3ccccc3Cl)n(-c3ccc(Cl)cc3)c2n1  human CB1 receptor (Homo sapiens, UniProt P21554)       -0.01
 2  CC1(C(N)=O)CCN(c2nc(-c3cc[nH]n3)nc3c2nc(-c2ccccc2Cl)n3-c2ccc(Cl)cc2)CC1  human CB1 receptor (Homo sapiens, UniProt P21554)        0.32
 3  CCOC1(C(N)=O)CCCN(c2nc(OCC(C)(C)O)nc3c2nc(-c2ccccc2Cl)n3-c2ccc(Cl)cc2)C1 (single isomer, unassigned) [Compound 216]  human CB1 receptor (Homo sapiens, UniProt P21554)        0.25
 4  CN(CC(C)(C)O)c1nc(N2CC(C(N)=O)C2)c2nc(-c3ccc(C#N)nc3)n(-c3ccc(Cl)cc3)c2n1  human CB1 receptor (Homo sapiens, UniProt P21554)        2.64
 5  CCOC1(C(N)=O)CCN(c2nc(OCC(C)(C)O)nc3c2nc(-c2ccccc2Cl)n3-c2ccc(Cl)cc2)CC1  human CB1 receptor (Homo sapiens, UniProt P21554)       -0.19
 6  C[C@H](O)CNc1nc(N2CCC(C)(C(N)=O)CC2)c2nc(-c3ccccc3Cl)n(-c3ccc(Cl)cc3)c2n1  human CB1 receptor (Homo sapiens, UniProt P21554)        0.32
 7  CN(CCO)c1nc(N2CCC(C)(C(N)=O)CC2)c2nc(-c3ccccc3Cl)n(-c3ccc(Cl)cc3)c2n1 [Compound 19]  human CB1 receptor (Homo sapiens, UniProt P21554)       -0.73
 8  CC(C)(O)COc1nc(N2CCS(=O)(=O)CC2)c2nc(-c3ccccc3Cl)n(-c3ccc(Cl)cc3)c2n1  human CB1 receptor (Homo sapiens, UniProt P21554)        0.13
 9  CCN1CCN(c2nc(OCC(C)(C)O)nc3c2nc(-c2ccccc2Cl)n3-c2ccc(Cl)cc2)CC1  human CB1 receptor (Homo sapiens, UniProt P21554)        0.76
10  CCOC1(C(N)=O)CCCN(c2nc(OCC(C)(C)O)nc3c2nc(-c2ccccc2Cl)n3-c2ccc(Cl)cc2)C1 (single isomer, unassigned) [Compound 217]  human CB1 receptor (Homo sapiens, UniProt P21554)        1.43
11  CC(C)(O)COc1nc(N2CCC(C)(C(N)=O)CC2)c2nc(-c3ccccc3Cl)n(-c3ccccc3)c2n1  human CB1 receptor (Homo sapiens, UniProt P21554)        1.11
12  CO[C@H]1CCN(c2nc(N3CCC(C)(C(N)=O)CC3)c3nc(-c4ccccc4Cl)n(-c4ccc(Cl)cc4)c3n2)C1  human CB1 receptor (Homo sapiens, UniProt P21554)        0.23
13  CCNC1(C(N)=O)CCN(c2nc(N3CCCCC3)nc3c2nc(-c2ccccc2Cl)n3-c2ccc(Cl)cc2)CC1  human CB1 receptor (Homo sapiens, UniProt P21554)        0.43
14  Cc1cnccc1-c1nc2c(N3CCC(C)(C(N)=O)CC3)nc(OCC(C)(C)O)nc2n1-c1ccc(Cl)cc1  human CB1 receptor (Homo sapiens, UniProt P21554)        1.16
